Hey, just so you know, these numbers are from the METLIN SMRT retention time set (Domingo-Almenara et al. 2019).

- protocol-text: gradient 5% acetonitrile 3 min, to 50% in 2 min, to 85% in 15 min, held 3 min, 100 µL/min
- assay-context: column: Zorbax Extend-C18 2.1 x 50 mm; eluents: water / acetonitrile, 0.1% formic acid
reported-endpoint: RP-LC retention time (s)
// return numeric value only (unit: s, not printed)

Memo: O=C(Nc1cccnc1)C1CCN(S(=O)(=O)c2cccnc2)CC1 , reported RP-LC retention time: 591

Item: CNC(=O)C1CCN(c2nc3ncn(CC(=O)Nc4c(C)cc(C)cc4C)c(=O)c3s2)CC1 | RP-LC retention time: 646

Record summary for COc1ccc2c(c1)CC(NC(=O)NCCCN1CCN(Cc3ccccc3)CC1)CO2 (centres undefined) : reported RP-LC retention time = 634

Measured RP-LC retention time, CC1CN(C2CCCCC2)c2nc3c(c(=O)n(CCCO)c(=O)n3C)n2C1 (centres undefined) : 803

So for Cc1nc(-c2noc(-c3ccncc3)n2)cn1CC(=O)NCc1ccc(F)cc1 , the logged RP-LC retention time turned out to be 885

// RP-LC retention time lookup, compound = CCn1ccc2c(cc(C(=O)Nc3cc(Cl)ccc3OC)n2C)c1=O , result: 1150

What the record says about CC(C)NC(=O)c1ccc2c(c1)CC(=O)N2C : RP-LC retention time is 616

What the record says about Cc1ccc(CNC(=O)C2(C)Cn3nc(C(=O)NCCN(C)C)cc3C(=O)N2C)cc1 (centres undefined) : RP-LC retention time is 639

Entry CCCn1cc2c3c(cccc31)CN(C(=O)Nc1cc(OC)c(OC)c(OC)c1)CC2 ; RP-LC retention time = 970

Notebook: CC(C)n1cnc2cc(CNC(=O)c3ccccc3Cl)ccc21 , RP-LC retention time read as 597

Entry O=C(CCn1nnc2cc(-c3noc(/C=C/c4ccccc4)n3)ccc21)N1CCCC1 , RP-LC retention time reported as 954

Given item CN(C)c1ccc(CNC(=O)C2CCN(S(=O)(=O)c3cn(C)cn3)CC2)cc1 , the value recorded as its RP-LC retention time is 550

The value of RP-LC retention time measured for the compound COc1cc(Nc2nc(-c3nnn(-c4cc(Cl)ccc4OC)c3C)ns2)cc(OC)c1 turned out to be 1070

Entry O=C(Cn1c(=O)cnc2cc(C(=O)NC3CC3)ccc21)Nc1ccccc1C(F)(F)F , RP-LC retention time reported as 646

Kindly note the recorded RP-LC retention time for CCn1ncn2cc(S(=O)(=O)Nc3ccccc3C)cc2c1=O , which is 863

Reported RP-LC retention time for CCc1csc(-c2ccc(N3CCN(C(=O)c4ccc(C#N)cc4F)CC3)nc2)n1 was 929

compound Cc1cccc(C2=NC3(CCN(C(=O)c4ccc5c(c4)OCO5)CC3)NC2=O)c1 , RP-LC retention time observed: 792

Entry Cc1nn(C)c(C)c1CNC(=O)c1cccc2[nH]cc(CN3CCCC3)c12 ; RP-LC retention time = 600

Lab note: measured RP-LC retention time of O=C(Nc1ccc(Cl)cc1)C1(c2cccs2)CCOCC1 was 976

RP-LC retention time in this record for COC1CC2C=C(C)/C=C/C=C/C(=O)NC(c3ccccc3)C/C=C/CCC(O)CC(=O)C2=C1O (centres undefined) : 977

Data point: Cc1cnc(C2CC2)n1CCNC(=O)c1cccn1C ; RP-LC retention time = 579

RP-LC retention time reading for COC(=O)c1cc(C)nc2c1c(=O)n(Cc1nc(-c3ccccc3OC)oc1C)c(=O)n2C : 971

So for O=C(C1CCN(c2ncccc2-c2nc(-c3ccccc3)no2)CC1)N1CCN(c2ncccn2)CC1 , the logged RP-LC retention time turned out to be 967

The recorded RP-LC retention time for CCN1CCN(C2CCN(C(=O)c3cccc(Br)c3)CC2)C1=O is 720

Field RP-LC retention time (entry O=S(=O)(c1ccccc1)N1CCC(c2noc(C3CC3)n2)C1 (centres undefined) ) reads 866

According to the records, this compound O=C(CCc1c(-c2ccc(Cl)cc2)nc2ccccn12)NCc1ccc2c(c1)OCO2 displays RP-LC retention time of 654

Cc1ccc(C)c(-c2cc3c(=O)n(Cc4noc(-c5ccccc5)n4)ccn3n2)c1 has a reported RP-LC retention time of 860

Measured RP-LC retention time, CCOc1ccccc1C1CC(=O)NC(SCC(=O)Nc2nccs2)=C1C#N (centres undefined) : 734

RP-LC retention time reading for CCN1C(=O)COc2ccc(-c3csc(NC(=O)C(C)(C)C)n3)cc21 : 910

Notebook: Cc1cc(F)ccc1NS(=O)(=O)c1ccc(-c2nnc(C3CCC3)o2)o1 , RP-LC retention time read as 963

Summary for this compound, COc1cc(CN2CCC3(CCC(CN4CCOCC4)O3)CC2)ccc1OCC(C)C (centres undefined) : RP-LC retention time is 598

Sample COCCc1noc(C2Cc3ccccc3N2C(=O)Nc2cc(C)cc(C)c2)n1 (centres undefined) ; RP-LC retention time observed: 968

Field RP-LC retention time (entry CCOc1ccccc1CN1C[C@@H](CO)[C@H](c2ccccn2)C1 ) reads 620

Query Cc1cccc(Sc2nccnc2N2CCCC(C(=O)NCc3cccc(Cl)c3)C2)c1 (centres undefined) yields RP-LC retention time of 1180

Value of measured RP-LC retention time for the entry Cc1cc(OCC(=O)NCc2ccco2)nc(N2CCC(C)CC2)n1 : 650

compound CCn1nccc1C(=O)Nc1ccc2c(c1)OCO2 , RP-LC retention time observed: 693

The value of RP-LC retention time measured for the compound COc1ccccc1NC(=O)N1CCOc2ccc(C)cc21 turned out to be 1040

Please fill in: RP-LC retention time reported for Cc1cc(-c2nnc(-c3ccco3)o2)c(C)n1CC(=O)Nc1cccc(F)c1 = 881

Kindly note the recorded RP-LC retention time for COc1ccc(C2Cn3nnc(-c4nc(-c5ccc(OCc6ccccc6)cc5)no4)c3CO2)cc1 (centres undefined) , which is 1340

###

- protocol-text: gradient 5% acetonitrile 3 min, to 50% in 2 min, to 85% in 15 min, held 3 min, 100 µL/min
- assay-context: column: Zorbax Extend-C18 2.1 x 50 mm; eluents: water / acetonitrile, 0.1% formic acid
Consider the following compounds; for each one, report its RP-LC retention time.
Number first, unit second: that is the form wanted.

Noted for CCc1ccc(-n2nc(N3CCCC(C(=O)NCc4ccc(OC)cc4OC)C3)ccc2=O)cc1 (centres undefined) : its RP-LC retention time reads 872 s

Form: compound = CNC(=O)C1CCCN(c2nc3ncn(CC(=O)Nc4ccc(F)cc4)c(=O)c3s2)C1 (centres undefined) ; RP-LC retention time = 634 s

Lab note: measured RP-LC retention time of COc1ncc(C(=O)NC2CCC(C)CC2)cn1 (centres undefined) was 748 s

# RP-LC retention time (compound: CCOc1ccccc1NC(=O)NCCCn1c(C(F)(F)F)nc2cccnc21 ) is 856 s

Measured RP-LC retention time, CCN1C=C(C(=O)OCc2cc(F)ccc2F)C(C)=NS1(=O)=O : 975 s

GET /value?item= CCCCOC(=O)Cn1c(=O)c2c(nc3n2CCCCN3c2ccc(OCC)cc2)n(C)c1=O &field=RP-LC retention time returns 1100 s

// sample COc1ccc(-c2nnc(-c3ccccc3)o2)cc1S(=O)(=O)NC(C)(C)CO , its RP-LC retention time was 759 s

So for O=S(=O)(CCc1ccccc1)N1CCCn2nc(-c3cccs3)cc2C1 , the logged RP-LC retention time turned out to be 988 s

Just so you know, measured RP-LC retention time for Cc1ccccc1Cc1nc(-c2cccc(-c3ccnn3C)c2)no1 came out at 1110 s

###

- protocol-text: gradient 5% acetonitrile 3 min, to 50% in 2 min, to 85% in 15 min, held 3 min, 100 µL/min
- assay-context: column: Zorbax Extend-C18 2.1 x 50 mm; eluents: water / acetonitrile, 0.1% formic acid
Binary call on RP-LC retention time with cut-off 1000 s: strictly below means yes (1), and equality or higher means no (0).

Q: In plain terms, does COc1ccccc1-c1nnc(-c2ccc(Cl)c(S(=O)(=O)N3CCC(C)CC3)c2)o1 come in under 1000 s for RP-LC retention time?
Ans: no (0)

Q: is_below(RP-LC retention time, 1000 s) for CC(C)c1cc(-c2ccc(F)c3ccccc23)nc(N)n1 ?
Ans: yes (1)

Q: Lab note: RP-LC retention time threshold 1000 s. Does this compound come in strictly under it? O=C(NC1CCCCCC1)C1CCCN(c2nc3ccccc3n(Cc3ccccc3)c2=O)C1 (centres undefined)
Ans: no (0)

Q: Field: below-cutoff. Rule: recorded RP-LC retention time strictly less than 1000 s. Subject: CCCNC(=O)C1CCCN(c2nc3ncn(CC(=O)Nc4ccc(C)cc4C)c(=O)c3s2)C1 (centres undefined)
Ans: yes (1)

Q: Lab note: RP-LC retention time threshold 1000 s. Does this compound come in strictly under it? Cc1nnc(N2CCCC(C(=O)NCCCOC(C)C)C2)c2nn(-c3ccc(Cl)cc3)c(C)c12 (centres undefined)
Ans: yes (1)

Q: For Cc1cccc(-n2c(=O)c3c(cc(C)n3C)n(CC(=O)Nc3ccc(Cl)cc3)c2=O)c1 , is the recorded RP-LC retention time below the cut-off of 1000 s?
Ans: yes (1)
